Each record here notes measured IC50.
Test system: NCI-H460
Test: Cytotoxicity against human NCI-H460 cell assessed as cell death after 12 hrs by Hoechst 33342/propidium iodide staining based fluorescence microscopy
Format: functional
Conditions: NCI-H460, 12 h
endpoint: IC50 (µM)

# item_smiles, result_number
data = [
    ("C[C@@H]1O[C@@H](O[C@@H]2[C@@H](O)[C@@H](O)[C@H](O[C@@H]3[C@@H](O)[C@@H](O)[C@H](O[C@H]4CC[C@@]5(C)[C@H](CC[C@@H]6[C@@H]5CC[C@]5(C)[C@@H](C7=CC(=O)OC7)CC[C@]65O)C4)O[C@H]3C)O[C@H]2C)[C@H](O)[C@H](O)[C@H]1O", 1.35),
    ("C[C@@H]1O[C@@H](O[C@@H]2CC[C@H](O[C@@H]3CC[C@H](O[C@H]4CC[C@@]5(C)[C@H](CC[C@@H]6[C@@H]5CC[C@]5(C)[C@@H](C7=CC(=O)OC7)CC[C@]65O)C4)O[C@H]3C)O[C@H]2C)CC[C@H]1O", 3.96),
]

---

Tested on: NCI-H460
Assay: Cytotoxicity against human NCI-H460 cell assessed as cell death after 12 hrs by Hoechst 33342/propidium iodide staining based fluorescence microscopy
Assay type: functional
Settings: NCI-H460, 12 h
endpoint: IC50 (µM)

# item_smiles, output_unit, result_number
measured = [
    ("C[C@H]1O[C@H](O[C@H]2CC[C@@]3(C)[C@H](CC[C@@H]4[C@@H]3CC[C@]3(C)[C@@H](C5=CC(=O)OC5)CC[C@]43O)C2)CC[C@@H]1O[C@@H]1CC[C@H](O[C@@H]2CC[C@H](O)[C@@H](C)O2)[C@@H](C)O1", "µM", 33.1),
    ("C[C@@H]1O[C@@H](O[C@@H]2CC[C@H](O[C@H]3CC[C@@]4(C)[C@H](CC[C@@H]5[C@@H]4CC[C@]4(C)[C@@H](C6=CC(=O)OC6)CC[C@]54O)C3)O[C@H]2C)CC[C@H]1O", "µM", 0.51),
]

---

Test system: NCI-H460
Assay: Cytotoxicity against human NCI-H460 cell assessed as cell death after 12 hrs by Hoechst 33342/propidium iodide staining based fluorescence microscopy
Format: functional
Conditions: NCI-H460, 12 h
Listing of recorded log10 IC50 by entry.
endpoint: log10 IC50 (log10 of the value in nM)

# item_smiles, result_number
measured = [
    ("C[C@@H]1O[C@@H](O[C@@H]2[C@@H](O)[C@@H](O)[C@H](O[C@H]3CC[C@@]4(C)[C@H](CC[C@@H]5[C@@H]4CC[C@]4(C)[C@@H](C6=CC(=O)OC6)CC[C@]54O)C3)O[C@H]2C)[C@H](O)[C@H](O)[C@H]1O", 2.56),
    ("C[C@H]1O[C@H](O[C@H]2[C@H](O)[C@H](O)[C@@H](O[C@H]3[C@H](O)[C@H](O)[C@@H](O[C@H]4CC[C@@]5(C)[C@H](CC[C@@H]6[C@@H]5CC[C@]5(C)[C@@H](C7=CC(=O)OC7)CC[C@]65O)C4)O[C@@H]3C)O[C@@H]2C)[C@@H](O)[C@@H](O)[C@@H]1O", 4.26),
    ("C[C@H]1O[C@H](O[C@H]2CC[C@@]3(C)[C@H](CC[C@@H]4[C@@H]3CC[C@]3(C)[C@@H](C5=CC(=O)OC5)CC[C@]43O)C2)CC[C@@H]1O", 2.59),
    ("C[C@H]1O[C@H](O[C@H]2CC[C@@]3(C)[C@H](CC[C@@H]4[C@@H]3CC[C@]3(C)[C@@H](C5=CC(=O)OC5)CC[C@]43O)C2)CC[C@@H]1O[C@@H]1CC[C@H](O)[C@@H](C)O1", 3.78),
    ("C[C@@H]1O[C@@H](O[C@H]2CC[C@@]3(C)[C@H](CC[C@@H]4[C@@H]3CC[C@]3(C)[C@@H](C5=CC(=O)OC5)CC[C@]43O)C2)CC[C@H]1O", 1.68),
    ("C[C@H]1O[C@H](O[C@H]2CC[C@@]3(C)[C@H](CC[C@@H]4[C@@H]3CC[C@]3(C)[C@@H](C5=CC(=O)OC5)CC[C@]43O)C2)[C@@H](O)[C@@H](O)[C@@H]1O", 2.85),
    ("C[C@H]1O[C@H](O[C@H]2[C@H](O)[C@H](O)[C@@H](O[C@H]3CC[C@@]4(C)[C@H](CC[C@@H]5[C@@H]4CC[C@]4(C)[C@@H](C6=CC(=O)OC6)CC[C@]54O)C3)O[C@@H]2C)[C@@H](O)[C@@H](O)[C@@H]1O", 3.63),
]
